- Species: Homo sapiens
- MEASUREMENT PROTOCOL: Selectivity ratio of IC50 for human recombinant N-terminal hexahistidine tagged JAK1 JH1 catalytic domain (854 to 1154 residues) expressed in baculovirus infected Sf9 cells to IC50 for human recombinant N-terminal hexahistidine tagged JAK2 JH1 catalytic domain (835 to 1132 residues) expressed in baculovirus infected Sf9 cells
MEASURE: Ratio IC50

1) CC(Oc1cc(-c2cn[nH]c2)cnc1N)c1cc(F)ccc1Cl (stereo not given)    5
2) CC(Oc1cc(-c2cnn(C3CCNCC3)c2)cnc1N)c1cc(F)ccc1Cl (stereo not given)    110
3) CC(Oc1cc(-c2cccc(N3CCNCC3)c2)cnc1N)c1cc(F)ccc1Cl (stereo not given)    4
4) COc1ccc(F)c(Cl)c1C(C)Oc1cc(-c2cnn(C3CCNCC3)c2)cnc1N (stereo not given)    46
5) COc1ccc(F)cc1C(C)Oc1cc(-c2cnn(C3CCNCC3)c2)cnc1N (stereo not given)    598
